Hello, the source for this data is ChEMBL document CHEMBL4014346, in case you need it.

# target: Cytochrome P450 11B1, mitochondrial (Homo sapiens)
# Sequence (P15538 whole entry): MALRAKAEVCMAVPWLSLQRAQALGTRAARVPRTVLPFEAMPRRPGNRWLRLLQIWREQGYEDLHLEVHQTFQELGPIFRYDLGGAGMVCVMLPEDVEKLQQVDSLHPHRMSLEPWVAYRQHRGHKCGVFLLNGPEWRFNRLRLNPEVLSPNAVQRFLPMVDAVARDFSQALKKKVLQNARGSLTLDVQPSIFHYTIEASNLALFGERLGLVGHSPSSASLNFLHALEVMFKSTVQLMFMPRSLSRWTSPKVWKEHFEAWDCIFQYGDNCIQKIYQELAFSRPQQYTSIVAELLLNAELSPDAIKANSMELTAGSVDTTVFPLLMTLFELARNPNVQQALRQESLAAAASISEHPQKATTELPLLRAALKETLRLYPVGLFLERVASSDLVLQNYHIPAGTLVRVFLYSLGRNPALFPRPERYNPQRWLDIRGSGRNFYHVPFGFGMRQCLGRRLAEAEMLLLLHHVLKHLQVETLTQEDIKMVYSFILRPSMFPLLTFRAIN
# assay.details: Inhibition of human CYP11B1 expressed in hamster V79MZ cells using [1,2-3H]-11-deoxycorticosterone as substrate after 6 hrs by HPLC analysis
readout.name: IC50 (nM)

a = Cc1cncc(Cc2cc(-c3ccccc3)ns2)c1
b = Cc1cncc(Cc2csnc2-c2ccccc2)c1
# input Quick one: lower IC50, a or b ? Kindly state the label of the option you pick.
# output a

P = Cc1cncc(Cc2ccc(-c3ccccc3F)nc2)c1
Q = Cc1cncc(Cc2ccc(S(=O)(=O)c3ccccc3F)nc2)c1
# input Among P and Q , which shows a numerically higher IC50 result? Kindly state the label of the option you pick.
# output P
(P: 3 nM, Q: 2 nM)
